Data credit: PubChem BioAssay AID2060890

Test system: LG0703-F948-PDC complex spheroid viability
measurementDescription: Anticancer human tumor LG0703-F948-PDC patient-derived lung adenocarcinoma cell line growth inhibition [RAS]
recordedConditions: second compound 0.00316 µM; first compound 0.0316 µM; stronger effect = lower value
observable: viability, T/C (%)
Numbers only; they are read as %.

{"columns": ["compound", "viability, T/C / %"],
 "data": [
  ["C[C@@H](NC(=O)c1ncnc(N)c1Cl)c1ncc(C(=O)Nc2cc(C(F)(F)F)c(Cl)cn2)s1 + C=CC(=O)N1CCN(c2nc(OCC3CCCN3C)nc3c(F)c(-c4nc(N)cc(C)c4C(F)(F)F)c(Cl)cc23)C(C)C1", 99.4],
  ["CC(Nc1ccc2c(c1)OCCn1cc(N3C(=O)OCC3C(F)F)nc1-2)C(N)=O (centres undefined) + C=CC(=O)N1CCN(c2nc(OCC3CCCN3C)nc3c(F)c(-c4nc(N)cc(C)c4C(F)(F)F)c(Cl)cc23)C(C)C1", 91.8],
  ["Nc1ccn(C2OC(CO)C(O)C2(F)F)c(=O)n1 (centres undefined) + C=CC(=O)N1CCN(c2nc(OCC3CCCN3C)nc3c(F)c(-c4nc(N)cc(C)c4C(F)(F)F)c(Cl)cc23)C(C)C1", 27.3]
]}

Request: Given the compound CCN1CCN(Cc2ccc(Nc3ncc(F)c(-c4cc(F)c5nc(C)n(C(C)C)c5c4)n3)nc2)CC1 + C=CC(=O)N1CCN(c2nc(OCC3CCCN3C)nc3c(F)c(-c4nc(N)cc(C)c4C(F)(F)F)c(Cl)cc23)C(C)C1 , what is its reported viability, T/C?
Result: 85.5

----------
Tested on: LG0703-F948-PDC complex spheroid viability
measurementDescription: Anticancer human tumor LG0703-F948-PDC cell line growth inhibition [RAS];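 further: spheroids exposed to agents for 7 days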
recordedConditions: curve of first compound; second compound 0.00949 µM
observable: IC50

Here are 3 compounds together with their reported answers.
{"columns": ["compound", "targetOrSystem", "observable", "readoutValue"],
 "data": [
  ["O=C(c1ccc(F)c(F)c1Nc1ccc(I)cc1F)N1CC(O)([C@@H]2CCCCN2)C1 + CCn1c(-c2cc(N3CCN(C)CC3)cnc2C(C)OC)c2c3cc(ccc31)-c1csc(n1)CC(NC(=O)C1CC1C)C(=O)N1CCCC(N1)C(=O)OCC(C)(C)C2", "LG0703-F948-PDC complex spheroid viability", "IC50", "< 3.16 nM"],
  ["NC1c2ccccc2OC12CCN(c1cnc3c(N4CCCc5ncccc54)n[nH]c3n1)CC2 (centres undefined) + CCn1c(-c2cc(N3CCN(C)CC3)cnc2C(C)OC)c2c3cc(ccc31)-c1csc(n1)CC(NC(=O)C1CC1C)C(=O)N1CCCC(N1)C(=O)OCC(C)(C)C2", "LG0703-F948-PDC complex spheroid viability", "IC50", "< 31.6 nM"],
  ["CCc1c2c(nc3ccc(O)cc13)-c1cc3c(c(=O)n1C2)COC(=O)[C@]3(O)CC + CCn1c(-c2cc(N3CCN(C)CC3)cnc2C(C)OC)c2c3cc(ccc31)-c1csc(n1)CC(NC(=O)C1CC1C)C(=O)N1CCCC(N1)C(=O)OCC(C)(C)C2", "LG0703-F948-PDC complex spheroid viability", "IC50", "< 0.949 nM"]
]}

Next:
Request: Given the compound Cc1nc(N2CCC3(CC2)COC(C)C3N)c(CO)nc1Sc1ccnc(N)c1Cl (centres undefined) + CCn1c(-c2cc(N3CCN(C)CC3)cnc2C(C)OC)c2c3cc(ccc31)-c1csc(n1)CC(NC(=O)C1CC1C)C(=O)N1CCCC(N1)C(=O)OCC(C)(C)C2 , what is its reported IC50?
Result: < 31.6 nM

----------
# Lookup of reported viability, T/C keyed by entry
Test system: LG0703-F948-PDC complex spheroid viability
measurementDescription: Anticancer human tumor LG0703-F948-PDC cell line growth inhibition [RAS];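 further: spheroids exposed to agents for 7 days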;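 on viability, T/C: 100% = DMSO vehicle wells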
recordedConditions: second compound 0.03 µM; first compound 0.0316 µM; stronger effect = lower value

{"columns": ["compound", "targetOrSystem", "observable", "readoutValue"],
 "data": [
  ["CCC(CC)c1cc(NC2CCC(N)C2)n2nccc2n1 (configuration not stated) + CCn1c(-c2cccnc2C(C)OC)c2c3cc(ccc31)N1CCOC(CC(NC(=O)C(C(C)C)N(C)C(=O)C3(F)CCN(C(=O)C#CC(C)(C)N(C)C)CC3)C(=O)N3CCCC(N3)C(=O)OCC(C)(C)C2)C1", "LG0703-F948-PDC complex spheroid viability", "viability, T/C", "100%"]
]}

Request: viability, T/C, test system LG0703-F948-PDC complex spheroid viability, entry CCC(CC)c1cc(NC2CCC(N)C2)n2nccc2n1 (configuration not stated) + CCn1c(-c2cc(N3CCN(C)CC3)cnc2C(C)OC)c2c3cc(ccc31)-c1csc(n1)CC(NC(=O)C1CC1C)C(=O)N1CCCC(N1)C(=O)OCC(C)(C)C2
Result: 13%

----------
Tested on: LG0703-F948-PDC complex spheroid viability
measurementDescription: Anticancer human tumor LG0703-F948-PDC cell line growth inhibition [RAS];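 further: spheroids exposed to agents for 7 days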;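 on viability, T/C: 100% = DMSO vehicle wells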
recordedConditions: second compound 1 µM; first compound 0.0316 µM; stronger effect = lower value
Mark True for viability, T/C under 50%, False if at or over.

Example entries begin here.
{"columns": ["compound", "labelValue"],
 "data": [
  ["CCC(CC)c1cc(NC2CCC(N)C2)n2nccc2n1 (stereo not given) + C#Cc1c(F)ccc2cc(O)cc(-c3ncc4c(N5CC6CCC(C5)N6)nc(OCC56CCCN5CC(F)C6)nc4c3F)c12", "False"],
  ["C=CC(=O)Nc1cc(Nc2nccc(-c3cn(C)c4ccccc34)n2)c(OC)cc1N(C)CCN(C)C + C#Cc1c(F)ccc2cc(O)cc(-c3ncc4c(N5CC6CCC(C5)N6)nc(OCC56CCCN5CC(F)C6)nc4c3F)c12", "True"],
  ["CC(Nc1ccc2c(c1)OCCn1cc(N3C(=O)OCC3C(F)F)nc1-2)C(N)=O (stereo not given) + C=CC(=O)N1CCN(c2nc(OCC3CCCN3C)nc3c(F)c(-c4nc(N)cc(C)c4C(F)(F)F)c(Cl)cc23)C(C)C1", "False"],
  ["NC1c2ccccc2OC12CCN(c1cnc3c(N4CCCc5ncccc54)n[nH]c3n1)CC2 (stereo not given) + C=CC(=O)N1CCN(c2nc(OCC3CCCN3C)nc3c(F)c(-c4nc(N)cc(C)c4C(F)(F)F)c(Cl)cc23)C(C)C1", "False"],
  ["CC1(O)CCCC1n1c(=O)c(C(F)F)cc2cnc(NC3CCN(S(C)(=O)=O)CC3)nc21 (stereo not given) + C=CC(=O)N1CCN(c2nc(OCC3CCCN3C)nc3c(F)c(-c4nc(N)cc(C)c4C(F)(F)F)c(Cl)cc23)C(C)C1", "False"]
]}

Request: Just wondering, is viability, T/C of CC(C)NCC(C(=O)N1CCN(c2ncnc3c2C(C)CC3O)CC1)c1ccc(Cl)cc1 (stereo not given) + C#Cc1c(F)ccc2cc(O)cc(-c3ncc4c(N5CC6CCC(C5)N6)nc(OCC56CCCN5CC(F)C6)nc4c3F)c12 below 50%?
Result: False

Request: Just wondering, is viability, T/C of CC(=O)OC12COC1CC(O)C1(C)C(=O)C(O)C3=C(C)C(OC(=O)C(O)C(NC(=O)OC(C)(C)C)c4ccccc4)CC(O)(C(OC(=O)c4ccccc4)C21)C3(C)C (stereo not given) + C=CC(=O)N1CCN(c2nc(OCC3CCCN3C)nc3c(F)c(-c4nc(N)cc(C)c4C(F)(F)F)c(Cl)cc23)C(C)C1 below 50%?
Result: True

Request: Just wondering, is viability, T/C of C=CC(=O)Nc1cc(Nc2nccc(-c3cn(C)c4ccccc34)n2)c(OC)cc1N(C)CCN(C)C + C=CC(=O)N1CCN(c2nc(OCC3CCCN3C)nc3c(F)c(-c4nc(N)cc(C)c4C(F)(F)F)c(Cl)cc23)C(C)C1 below 50%?
Result: True

Request: Just wondering, is viability, T/C of NC1c2ccccc2OC12CCN(c1cnc3c(N4CCCc5ncccc54)n[nH]c3n1)CC2 (stereo not given) + C#Cc1c(F)ccc2cc(O)cc(-c3ncc4c(N5CC6CCC(C5)N6)nc(OCC56CCCN5CC(F)C6)nc4c3F)c12 below 50%?
Result: True

----------
System: LG0703-F948-PDC complex spheroid viability
measurementDescription: Anticancer human tumor LG0703-F948-PDC cell line growth inhibition [RAS];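 further: spheroids exposed to agents for 7 days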;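 on viability, T/C: 100% = DMSO vehicle wells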
recordedConditions: second compound 0.01 µM; first compound 10 µM; stronger effect = lower value
Mark true for viability, T/C under 20%, false if at or over.

Example entries begin here.
{"columns": ["compound", "labelValue"],
 "data": [
  ["NC1c2ccccc2OC12CCN(c1cnc3c(N4CCCc5ncccc54)n[nH]c3n1)CC2 (stereo unspecified) + C=CC(=O)N1CCN(c2nc(OCC3CCCN3C)nc3c(F)c(-c4nc(N)cc(C)c4C(F)(F)F)c(Cl)cc23)C(C)C1", "true"],
  ["CC(C)NCC(C(=O)N1CCN(c2ncnc3c2C(C)CC3O)CC1)c1ccc(Cl)cc1 (stereo unspecified) + C=CC(=O)N1CCN(c2nc(OCC3CCCN3C)nc3c(F)c(-c4nc(N)cc(C)c4C(F)(F)F)c(Cl)cc23)C(C)C1", "false"],
  ["CC(Nc1ccc2c(c1)OCCn1cc(N3C(=O)OCC3C(F)F)nc1-2)C(N)=O (stereo unspecified) + C=CC(=O)N1CCN(c2nc(OCC3CCCN3C)nc3c(F)c(-c4nc(N)cc(C)c4C(F)(F)F)c(Cl)cc23)C(C)C1", "true"],
  ["C[C@@H](NC(=O)c1ncnc(N)c1Cl)c1ncc(C(=O)Nc2cc(C(F)(F)F)c(Cl)cn2)s1 + C=CC(=O)N1CCN(c2nc(OCC3CCCN3C)nc3c(F)c(-c4nc(N)cc(C)c4C(F)(F)F)c(Cl)cc23)C(C)C1", "false"],
  ["CC1(O)CCCC1n1c(=O)c(C(F)F)cc2cnc(NC3CCN(S(C)(=O)=O)CC3)nc21 (stereo unspecified) + C=CC(=O)N1CCN(c2nc(OCC3CCCN3C)nc3c(F)c(-c4nc(N)cc(C)c4C(F)(F)F)c(Cl)cc23)C(C)C1", "true"]
]}

Now, please, on to the next compound.
Request: Just wondering, is viability, T/C of CC(=O)OC12COC1CC(O)C1(C)C(=O)C(O)C3=C(C)C(OC(=O)C(O)C(NC(=O)OC(C)(C)C)c4ccccc4)CC(O)(C(OC(=O)c4ccccc4)C21)C3(C)C (stereo unspecified) + C=CC(=O)N1CCN(c2nc(OCC3CCCN3C)nc3c(F)c(-c4nc(N)cc(C)c4C(F)(F)F)c(Cl)cc23)C(C)C1 below 20%?
Result: false
